- Tested on: MCF7
- assayRemarks: Cytotoxicity against human MCF7 assessed as growth inhibition at 10 uM by NCI protocol relative to control
- Format: functional
- experimentalConditions: read-out: GI
Reported inhibition of growth at 10 µM values are given for each entry in this list.
// return numeric value only (unit: %, not printed)

Some solved entries appear below for comparison.
COc1ccc(-c2csc(NC(=O)CN3CCN(c4cc(=O)[nH]c5ccc(F)cc45)CC3)n2)cc1 28.4
Cc1ccc(-c2csc(NC(=O)CN3CCN(c4cc(=O)n(-c5ccccc5)c5ccccc45)CC3)n2)cc1 13.5
COc1ccc(-c2csc(NC(=O)CN3CCN(c4cc(=O)n(-c5ccccc5)c5ccccc45)CC3)n2)cc1 26
O=C(CN1CCN(c2cc(=O)n(-c3ccccc3)c3ccccc23)CC1)Nc1nc(-c2ccc(Cl)cc2)cs1 79.9
O=C(CN1CCN(c2cc(=O)[nH]c3ccc(F)cc23)CC1)Nc1nc(-c2ccc(Cl)cc2)cs1 39.7
O=C(CN1CCN(c2cc(=O)n(-c3ccccc3)c3ccccc23)CC1)Nc1nc(-c2ccccc2)cs1 72.4

Next item in the queue.
Here "Cc1ccc(-c2csc(NC(=O)CN3CCN(c4cc(=O)[nH]c5ccc(F)cc45)CC3)n2)cc1" was tested on MCF7, and its inhibition of growth at 10 µM came to 33.5

====

# inhibition of growth at 10 µM per record follows
- System: K562
- assayRemarks: Cytotoxicity against human K-562 assessed as growth inhibition at 10 uM by NCI protocol relative to control
- Format: functional
- experimentalConditions: read-out: GI
Give just the number in %; leave the unit off.

Examples with answers:
COc1ccc(-c2csc(NC(=O)CN3CCN(c4cc(=O)[nH]c5ccc(F)cc45)CC3)n2)cc1 30.1
Cc1ccc(-c2csc(NC(=O)CN3CCN(c4cc(=O)[nH]c5ccc(F)cc45)CC3)n2)cc1 42.4

Short answer for "Cc1ccc(-c2csc(NC(=O)CN3CCN(c4cc(=O)n(-c5ccccc5)c5ccccc45)CC3)n2)cc1" : inhibition of growth at 10 µM was 49.3

Lab note: measured inhibition of growth at 10 µM of "COc1ccc(-c2csc(NC(=O)CN3CCN(c4cc(=O)n(-c5ccccc5)c5ccccc45)CC3)n2)cc1" was 56.4

====

- System: OVCAR-8
- assayRemarks: Cytotoxicity against human OVCAR-8 assessed as growth inhibition at 10 uM by NCI protocol relative to control
- Assay type: functional
- experimentalConditions: read-out: GI
measuredParameter: inhibition of growth at 10 µM
Remember to quote the unit after the number.

Consider the following illustrative entries.
COc1ccc(-c2csc(NC(=O)CN3CCN(c4cc(=O)[nH]c5ccc(F)cc45)CC3)n2)cc1 17.2%
O=C(CN1CCN(c2cc(=O)n(-c3ccccc3)c3ccccc23)CC1)Nc1nc(-c2ccccc2)cs1 30.2%
O=C(CN1CCN(c2cc(=O)[nH]c3ccc(F)cc23)CC1)Nc1nc(-c2ccc(Cl)cc2)cs1 24%
O=C(CN1CCN(c2cc(=O)n(-c3ccccc3)c3ccccc23)CC1)Nc1nc(-c2ccc(Cl)cc2)cs1 40.6%

Documented inhibition of growth at 10 µM of "COc1ccc(-c2csc(NC(=O)CN3CCN(c4cc(=O)n(-c5ccccc5)c5ccccc45)CC3)n2)cc1" : 15.5%

# compound "Cc1ccc(-c2csc(NC(=O)CN3CCN(c4cc(=O)[nH]c5ccc(F)cc45)CC3)n2)cc1" ; its inhibition of growth at 10 µM = 23.2%

====

- Tested on: SR
- assayRemarks: Cytotoxicity against human SR assessed as growth inhibition at 10 uM by NCI protocol relative to control
- Assay type: functional
- experimentalConditions: read-out: GI
inhibition of growth at 10 µM values, listed per item
Write it as a number; the unit % goes unstated.

O=C(CN1CCN(c2cc(=O)n(-c3ccccc3)c3ccccc23)CC1)Nc1nc(-c2ccccc2)cs1 48.7
COc1ccc(-c2csc(NC(=O)CN3CCN(c4cc(=O)[nH]c5ccc(F)cc45)CC3)n2)cc1 34.7

# ---- query molecule ----
Query "COc1ccc(-c2csc(NC(=O)CN3CCN(c4cc(=O)n(-c5ccccc5)c5ccccc45)CC3)n2)cc1" on SR; inhibition of growth at 10 µM returned: 11.2

====

- Test system: UO-31
- assayRemarks: Cytotoxicity against human UO31 assessed as growth inhibition at 10 uM by NCI protocol relative to control
- Assay type: functional
- experimentalConditions: read-out: GI
measuredParameter: inhibition of growth at 10 µM

O=C(CN1CCN(c2cc(=O)n(-c3ccccc3)c3ccccc23)CC1)Nc1nc(-c2ccccc2)cs1 58.4%
Cc1ccc(-c2csc(NC(=O)CN3CCN(c4cc(=O)[nH]c5ccc(F)cc45)CC3)n2)cc1 35.4%
COc1ccc(-c2csc(NC(=O)CN3CCN(c4cc(=O)n(-c5ccccc5)c5ccccc45)CC3)n2)cc1 27.9%

Lookup result for "O=C(CN1CCN(c2cc(=O)[nH]c3ccc(F)cc23)CC1)Nc1nc(-c2ccccc2)cs1" ; measured inhibition of growth at 10 µM: 24.2%
